- measurement.target: Delta-type opioid receptor (Mus musculus) (UniProt P32300)
- Sequence (P32300 whole entry): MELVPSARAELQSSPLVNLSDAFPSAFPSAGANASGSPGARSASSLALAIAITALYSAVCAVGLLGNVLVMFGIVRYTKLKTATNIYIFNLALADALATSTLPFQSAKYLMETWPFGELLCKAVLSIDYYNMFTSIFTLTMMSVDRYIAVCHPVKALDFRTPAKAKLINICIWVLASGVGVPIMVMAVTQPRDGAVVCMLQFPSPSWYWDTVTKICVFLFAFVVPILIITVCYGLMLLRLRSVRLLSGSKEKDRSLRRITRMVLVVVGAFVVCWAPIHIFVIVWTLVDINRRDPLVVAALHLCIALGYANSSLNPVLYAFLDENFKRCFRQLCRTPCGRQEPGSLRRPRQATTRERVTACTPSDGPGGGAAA
- test.name: Antagonist activity against delta opioid receptor in mouse vas deference assessed as effect on DPDPE-induced response
- Assay type: functional
Bridge positions count the residues as written; N and C are the ends. Square brackets hold non-standard residues; d marks the D form. Peptide text beside a SMILES is read from it. * marks the point of attachment. Phe(4-NO2) = N[C@@H](Cc1ccc([N+](=O)[O-])cc1)C(=O)O; X1 = Cc1cc(C(N)=O)cc(C)c1C[C@H](C)C(=O)*; Phe(4-F) = N[C@@H](Cc1ccc(F)cc1)C(=O)O; d2Nal = N[C@H](Cc1ccc2ccccc2c1)C(=O)O; Dmt = Cc1cc(O)cc(C)c1C[C@H](N)C(=O)O; dPen = CC(C)(S)[C@@H](N)C(=O)O; Pen = CC(C)(S)[C@H](N)C(=O)O; Sar = CNCC(=O)O
Below, each of the compounds is paired with its reported Ke value.
Report only the number, with the unit nM understood.

Worked cases, Ke given:
GET /value?item= Cc1cc(O)cc(C)c1C[C@H](C)C(=O)N[C@@H]1CSSC[C@H](C(N)=O)NC(=O)[C@H](Cc2ccc([N+](=O)[O-])cc2)NC(=O)CNC1=O &field=Ke returns 3.48

Data point: Cc1cc(C(N)=O)cc(C)c1C[C@H](C)C(=O)N[C@@H]1CSSC[C@H](C(N)=O)NC(=O)[C@H](Cc2ccc([N+](=O)[O-])cc2)NC(=O)CNC1=O (X1-[dC]G[Phe(4-NO2)][dC]-NH2; disulfide 1-4) ; Ke = 9.78

Reported Ke for CC[C@H](C)[C@H](NC(=O)[C@H](CCCNC(=N)N)NC(=O)[C@H](CCCNC(=N)N)NC(=O)[C@H](CC(C)C)NC(=O)[C@H](Cc1ccccc1)NC(=O)CNC(=O)CNC(=O)[C@@H](C)Cc1c(C)cc(C(N)=O)cc1C)C(=O)N[C@@H](CCCNC(=N)N)C(=O)N1CCC[C@H]1C(=O)N[C@@H](CCCCN)C(N)=O was 843

Summary for this compound, Cc1cc(O)cc(C)c1C[C@H](C)C(=O)N[C@H]1C(=O)NCC(=O)N[C@@H](Cc2ccc(F)cc2)C(=O)N[C@H](C(=O)N[C@@H](Cc2ccccc2)C(=O)O)C(C)(C)SSC1(C)C : Ke is 0.785

# compound Cc1cc(O)cc(C)c1C[C@H](N)C(=O)N(C)CC(=O)N[C@@H](Cc1ccccc1)C(=O)N[C@H](Cc1ccc2ccccc2c1)C(N)=O (H-[Dmt][Sar]F[d2Nal]-NH2) ; its Ke = 305

---
get_value(item= Cc1cc(C(N)=O)cc(C)c1C[C@H](C)C(=O)N[C@H]1C(=O)NCC(=O)N[C@@H](Cc2ccc(F)cc2)C(=O)N[C@H](C(=O)N[C@@H](Cc2ccccc2)C(=O)O)C(C)(C)SSC1(C)C (X1-[dPen]G[Phe(4-F)][Pen]F-OH; disulfide 1-4) , readout=Ke) returns 0.326

---

Catalogue of Ke values
- measurement.target: Kappa-type opioid receptor (Cavia porcellus)
- test.name: Antagonist activity against kappa opioid receptor in guinea pig ileum assessed as effect on U50488-induced response
- Type: functional, tissue-based
Bridge positions count the residues as written; N and C are the ends. Square brackets hold non-standard residues; d marks the D form. Peptide text beside a SMILES is read from it. * marks the point of attachment. Phe(4-NO2) = N[C@@H](Cc1ccc([N+](=O)[O-])cc1)C(=O)O; X1 = Cc1cc(C(N)=O)cc(C)c1C[C@H](C)C(=O)*; Phe(4-F) = N[C@@H](Cc1ccc(F)cc1)C(=O)O; dPen = CC(C)(S)[C@@H](N)C(=O)O; Pen = CC(C)(S)[C@H](N)C(=O)O
// units = nM; emit number, no label

Sample Cc1cc(C(N)=O)cc(C)c1C[C@H](C)C(=O)N[C@@H]1CSSC[C@H](C(N)=O)NC(=O)[C@H](Cc2ccc([N+](=O)[O-])cc2)NC(=O)CNC1=O (X1-[dC]G[Phe(4-NO2)][dC]-NH2; disulfide 1-4) , system: Kappa-type opioid receptor (Cavia porcellus). Its Ke is 18.9

Measured Ke for this entry Cc1cc(C(N)=O)cc(C)c1C[C@H](C)C(=O)N[C@H]1C(=O)NCC(=O)N[C@@H](Cc2ccc(F)cc2)C(=O)N[C@H](C(=O)N[C@@H](Cc2ccccc2)C(=O)O)C(C)(C)SSC1(C)C (X1-[dPen]G[Phe(4-F)][Pen]F-OH; disulfide 1-4) on Kappa-type opioid receptor (Cavia porcellus): 9980

So the reported Ke for Cc1cc(O)cc(C)c1C[C@H](C)C(=O)N[C@@H]1CSSC[C@H](C(N)=O)NC(=O)[C@H](Cc2ccc([N+](=O)[O-])cc2)NC(=O)CNC1=O , on Kappa-type opioid receptor (Cavia porcellus), turned out to be 6.41

The measured Ke that CC[C@H](C)[C@H](NC(=O)[C@H](CCCNC(=N)N)NC(=O)[C@H](CCCNC(=N)N)NC(=O)[C@H](CC(C)C)NC(=O)[C@H](Cc1ccccc1)NC(=O)CNC(=O)CNC(=O)[C@@H](C)Cc1c(C)cc(C(N)=O)cc1C)C(=O)N[C@@H](CCCNC(=N)N)C(=O)N1CCC[C@H]1C(=O)N[C@@H](CCCCN)C(N)=O showed for Kappa-type opioid receptor (Cavia porcellus) is 5.96

Please turn your attention to the following entry.
Entry Cc1cc(O)cc(C)c1C[C@H](C)C(=O)N[C@H]1C(=O)NCC(=O)N[C@@H](Cc2ccc(F)cc2)C(=O)N[C@H](C(=O)N[C@@H](Cc2ccccc2)C(=O)O)C(C)(C)SSC1(C)C under Kappa-type opioid receptor (Cavia porcellus) had Ke of 4370

---

Entries and their measured Ke follow.
- measurement.target: UniProtKB P97266
- Sequence (P97266 whole entry): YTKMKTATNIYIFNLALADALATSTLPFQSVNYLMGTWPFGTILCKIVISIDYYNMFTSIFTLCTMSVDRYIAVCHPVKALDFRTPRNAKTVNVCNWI
- test.name: Antagonist activity against mu opioid receptor in guinea pig ileum assessed as effect on TAPP-induced response
- Assay type: functional, tissue-based
Bridge positions count the residues as written; N and C are the ends. Square brackets hold non-standard residues; d marks the D form. Peptide text beside a SMILES is read from it. * marks the point of attachment. Phe(4-NO2) = N[C@@H](Cc1ccc([N+](=O)[O-])cc1)C(=O)O; X1 = Cc1cc(C(N)=O)cc(C)c1C[C@H](C)C(=O)*; d2Nal = N[C@H](Cc1ccc2ccccc2c1)C(=O)O; Dmt = Cc1cc(O)cc(C)c1C[C@H](N)C(=O)O; Sar = CNCC(=O)O

Please review the entries below; each comes with its answer.
Form field Ke for item Cc1cc(O)cc(C)c1C[C@H](C)C(=O)N[C@H]1C(=O)NCC(=O)N[C@@H](Cc2ccc(F)cc2)C(=O)N[C@H](C(=O)N[C@@H](Cc2ccccc2)C(=O)O)C(C)(C)SSC1(C)C on UniProtKB P97266: 668 nM

Entry Cc1cc(O)cc(C)c1C[C@H](N)C(=O)N(C)CC(=O)N[C@@H](Cc1ccccc1)C(=O)N[C@H](Cc1ccc2ccccc2c1)C(N)=O (H-[Dmt][Sar]F[d2Nal]-NH2) , UniProtKB P97266 data, Ke value: 2.34 nM

Next up:
Measured on UniProtKB P97266, Cc1cc(C(N)=O)cc(C)c1C[C@H](C)C(=O)N[C@@H]1CSSC[C@H](C(N)=O)NC(=O)[C@H](Cc2ccc([N+](=O)[O-])cc2)NC(=O)CNC1=O (X1-[dC]G[Phe(4-NO2)][dC]-NH2; disulfide 1-4) has a documented Ke of 1.24 nM

---

- measurement.target: Mu-type opioid receptor (Cavia porcellus)
- test.name: Antagonist activity against mu opioid receptor in guinea pig ileum assessed as effect on TAPP-induced response
- Format: functional, tissue-based
Bridge positions count the residues as written; N and C are the ends. Square brackets hold non-standard residues; d marks the D form. Peptide text beside a SMILES is read from it. * marks the point of attachment. X1 = Cc1cc(C(N)=O)cc(C)c1C[C@H](C)C(=O)*; Phe(4-F) = N[C@@H](Cc1ccc(F)cc1)C(=O)O; dPen = CC(C)(S)[C@@H](N)C(=O)O; Pen = CC(C)(S)[C@H](N)C(=O)O
assay.readout: Ke (nM)
Numeric only. Scale: nM

Solved cases below.
The compound identified as CC[C@H](C)[C@H](NC(=O)[C@H](CCCNC(=N)N)NC(=O)[C@H](CCCNC(=N)N)NC(=O)[C@H](CC(C)C)NC(=O)[C@H](Cc1ccccc1)NC(=O)CNC(=O)CNC(=O)[C@@H](C)Cc1c(C)cc(C(N)=O)cc1C)C(=O)N[C@@H](CCCNC(=N)N)C(=O)N1CCC[C@H]1C(=O)N[C@@H](CCCCN)C(N)=O registered its Ke at 401

The compound listed as Cc1cc(O)cc(C)c1C[C@H](C)C(=O)N[C@@H]1CSSC[C@H](C(N)=O)NC(=O)[C@H](Cc2ccc([N+](=O)[O-])cc2)NC(=O)CNC1=O has a reported Ke of 1.48

Kindly consider the entry below.
Entry under test: Cc1cc(C(N)=O)cc(C)c1C[C@H](C)C(=O)N[C@H]1C(=O)NCC(=O)N[C@@H](Cc2ccc(F)cc2)C(=O)N[C@H](C(=O)N[C@@H](Cc2ccccc2)C(=O)O)C(C)(C)SSC1(C)C (X1-[dPen]G[Phe(4-F)][Pen]F-OH; disulfide 1-4) . Its Ke was 1170
